This section presents compounds with their documented PAMPA_R3 values.
- condition: PAMPA
Where a SMILES comes first, the peptide text is derived from it. [ ]: non-standard residue; d: D form. NMeF = CN[C@@H](Cc1ccccc1)C(=O)O; NMeL = CN[C@@H](CC(C)C)C(=O)O
measure-name: PAMPA_R3

compound: CC[C@H](C)[C@@H]1NC(=O)[C@@H](C(C)C)NC(=O)[C@H](CC(C)C)N(C)C(=O)[C@H]2CCCN2C(=O)[C@H]2CCCN2C(=O)[C@H](C(C)C)NC(=O)[C@@H](CC(C)C)NC(=O)[C@H]2CCCN2C1=O [Design D8.16, DPRO DLEU VAL DPRO DPRO *LEU DVAL ILE] (cyclo(I[dP][dL]V[dP][dP][NMeL][dV]))
measure-name: PAMPA_R3
data-value: 1.69E-06
//
compound: CC(C)C[C@@H]1C(=O)N(C)[C@@H](Cc2ccccc2)C(=O)N[C@@H](C(C)C)C(=O)N2CCC[C@H]2C(=O)NCC(=O)N2CCC[C@H]2C(=O)N(C)[C@H](CC(C)C)C(=O)N[C@@H](C(C)C)C(=O)N[C@H](CC(C)C)C(=O)N1C (single isomer, unassigned) [Design D9.43.p2]
measure-name: PAMPA_R3
data-value: 3.77E-06
//
compound: CC(C)C[C@@H]1NC(=O)[C@H](Cc2ccccc2)N(C)C(=O)[C@H]2CCCN2C(=O)[C@@H](CC(C)C)NC(=O)[C@@H](CC(C)C)NC(=O)[C@H](C)NC(=O)[C@H]2CCCN2C(=O)[C@@H]2CCCN2C(=O)[C@@H](C(C)C)NC1=O [Design D9.32] (cyclo(A[dL][dL][dP][NMeF]L[dV]P[dP]))
measure-name: PAMPA_R3
data-value: 2.67E-07

Attribution: paper PMC9490236
